Test system: Plasmodium falciparum
test_details: microbe, parasite or virus in culture
setup_conditions: Dd2, 72 h
Description: Antiplasmodial activity against asexual blood-stage Plasmodium falciparum Dd2 using 2% haematocrit and 0.2% parasitemia assessed as reduction in fluorescence measured after 72 hrs by Malaria SYBR Green I-based Fluorescence (MSF) assay
observation_type: IC50 (µM)
Field format: number, assumed µM, no unit text.

Consider the reported IC50 for these compounds:
| mol | IC50 [µM] |
| --- | --- |
| CCC1=C(CC)/C(=C/NC2CCCCCC2)N=C1c1ccc(C)[nH]1 | 0.00383 |
| CCC1=C(CC)/C(=C/NC2CCCCCC2)N=C1c1ccc(Cl)[nH]1 | 0.254 |
| CCC1=C(CC)/C(=C/NC2CCCCCCC2)N=C1c1ccc(CC)[nH]1 | 0.00721 |
| CC1=C(C)/C(=C/NC2CCCCCC2)N=C1c1ccc(C)[nH]1 | 0.00373 |
| CCC1=C(C)/C(=C/NC2CCCCCCC2)N=C1c1ccc(CC)[nH]1 | 0.00901 |
| CCC1=C(CC)/C(=C/NC2CCCCC2)N=C1c1ccc(Cl)[nH]1 | 0.232 |
| CCC1=C(CC)/C(=C/NC2CCCCCCC2)N=C1c1ccc(Br)[nH]1 | 0.124 |

Continue with the next compound.
### Prompt What does the data say about its IC50? Entry: COc1ccc(Cc2ccc(C3=N/C(=C\NC4CCCCC4)C4=C3OCCO4)[nH]2)cc1
### Response 0.0126

----------
test_details: in vitro
setup_conditions: mouse, liver microsomes
Known microsomal CLint at 1 h of a selection of compounds
Field format: number, assumed µL/min/mg, no unit text.

Consider the reported microsomal CLint at 1 h for these compounds:
| mol | microsomal CLint at 1 h [µL/min/mg] |
| --- | --- |
| CCC1=C(CC)/C(=C/NC23C[C@H]4C[C@@H](C2)C[C@@H](C3)C4)N=C1c1cc2cc(OC)ccc2[nH]1 | 9.13 |
| C[C@H]1CC[C@H](N/C=C2\N=C(c3ccc[nH]3)C3=C2CCCC3)CC1 | 41.9 |

### Prompt What does the data say about its microsomal CLint at 1 h? Entry: C(/NC12C[C@H]3C[C@@H](C1)C[C@@H](C2)C3)=C1/N=C(c2ccc[nH]2)C2=C1OCCO2
### Response 49.8

### Prompt What does the data say about its microsomal CLint at 1 h? Entry: CCc1ccc(C2=N/C(=C\NC3CCCCC3)C3=C2OCCO3)[nH]1
### Response 82.8

### Prompt What does the data say about its microsomal CLint at 1 h? Entry: CCC1=C(CC)/C(=C/NC23C[C@H]4C[C@@H](C2)C[C@@H](C3)C4)N=C1c1ccc(-c2ccccc2)[nH]1
### Response 91.8

### Prompt What does the data say about its microsomal CLint at 1 h? Entry: CCC1=C(C)/C(=C/NC2CCCCC2)N=C1c1ccc(C)[nH]1
### Response 43.7

### Prompt What does the data say about its microsomal CLint at 1 h? Entry: COc1ccc(C2=C(c3ccc(OC)cc3)/C(=C/NC34C[C@H]5C[C@@H](C3)C[C@@H](C4)C5)N=C2c2ccc[nH]2)cc1
### Response 12.2

### Prompt What does the data say about its microsomal CLint at 1 h? Entry: CCC1=C(C)/C(=C/NC2CCCCCCC2)N=C1c1ccc(C)[nH]1
### Response 0.47

### Prompt What does the data say about its microsomal CLint at 1 h? Entry: CCC1=C(C)/C(=C/NC2CCCCCCC2)N=C1c1ccc(CC)[nH]1
### Response 17.5
